- Test system: Hyperlipidemic Hamster
- PROCEDURE_SUMMARY: In Vivo Assay of Hypolipidemic Agents Using the Hyperlipidemic Hamster
- APPLIED_CONDITIONS: Mesocricetus auratus, po, 168 h, 50 mg/kg once daily oral, 7 days; percent change versus control, negative = lowering; read-out: % Reduction (in vivo) Cholest. Esters
Label scheme for change in vivo at 50 mg/kg: low band = under -40%, middle band = from -40% up to -10%, high band = -10% and over

Exam item: Could you tell me which band COc1ccc(C2C(CCCc3ccccc3)C(=O)N2c2ccc(OC)cc2)cc1 (centres unmarked) belongs to?
Marked response: low band

Exam item: Which class is correct for the following molecule? COc1ccc([C@@H]2[C@@H](CCCc3ccccc3)C(=O)N2c2ccc(OC(F)(F)F)cc2)cc1 (relative stereo)
Marked response: low band

Exam item: Which class does CCOc1ccc([C@H]2[C@@H](CCCc3ccccc3)C(=O)N2c2ccccc2)cc1 (relative stereo) fall in?
Marked response: low band

Exam item: Quick check: band for COc1ccc([C@@H]2[C@H](N)C(=O)N2c2ccccc2)cc1 (relative stereo)
Marked response: high band

Exam item: Where would COc1ccc([C@@H]2N(c3ccc(OC)cc3)C(=O)[C@@]2(c2ccccc2)C2CCCC2)cc1 (relative stereo) land among the classes by reported change in vivo at 50 mg/kg?
Marked response: middle band

Exam item: Classify this molecule: CC[C@]1(CCCc2ccccc2)C(=O)N(c2ccc(OC)cc2)[C@H]1c1ccc(OC)cc1 (relative stereo)
Marked response: high band

Exam item: Class (by measured change in vivo at 50 mg/kg) for COc1ccc([C@@H]2[C@@H](CCCc3ccccc3)C(=O)N2c2cccc([N+](=O)[O-])c2)cc1 (relative stereo)
Marked response: low band

Exam item: Which band does COc1ccc(N2C(=O)[C@H](CCCc3ccccc3)[C@H]2c2ccc(OCc3ccccc3)cc2)cc1 (relative stereo) fall in?
Marked response: low band

Exam item: Just checking, what class would you give CCCCCCCCCC[C@]1(C)C(=O)N(c2ccc(OC)cc2)[C@H]1c1ccccc1 (relative stereo) here?
Marked response: high band

Exam item: Note: place this molecule into its band. Item: COc1ccc([C@@H]2[C@@H](CCCc3ccccc3)C(=O)N2c2cnc3ccccc3c2)cc1 (relative stereo)
Marked response: middle band

Exam item: Assign a bin to COc1ccc([C@H]2[C@@H](CCCCc3ccccc3)C(=O)N2c2ccc(OC)cc2)cc1 (relative stereo)
Marked response: middle band

Exam item: Entry COc1ccc([C@@H]2[C@H](Oc3ccc4ccccc4c3)C(=O)N2c2ccc(OC)cc2)cc1 (relative stereo) belongs to which category?
Marked response: high band

###

- EXPERIMENTAL_TARGET: ACAT (Rattus norvegicus, UniProt Q7TQM4)
- Construct: Rat liver microsomes are used as the source of ACAT; from tissue; host or cells: rat liver microsomes
- Sequence (Q7TQM4 whole entry): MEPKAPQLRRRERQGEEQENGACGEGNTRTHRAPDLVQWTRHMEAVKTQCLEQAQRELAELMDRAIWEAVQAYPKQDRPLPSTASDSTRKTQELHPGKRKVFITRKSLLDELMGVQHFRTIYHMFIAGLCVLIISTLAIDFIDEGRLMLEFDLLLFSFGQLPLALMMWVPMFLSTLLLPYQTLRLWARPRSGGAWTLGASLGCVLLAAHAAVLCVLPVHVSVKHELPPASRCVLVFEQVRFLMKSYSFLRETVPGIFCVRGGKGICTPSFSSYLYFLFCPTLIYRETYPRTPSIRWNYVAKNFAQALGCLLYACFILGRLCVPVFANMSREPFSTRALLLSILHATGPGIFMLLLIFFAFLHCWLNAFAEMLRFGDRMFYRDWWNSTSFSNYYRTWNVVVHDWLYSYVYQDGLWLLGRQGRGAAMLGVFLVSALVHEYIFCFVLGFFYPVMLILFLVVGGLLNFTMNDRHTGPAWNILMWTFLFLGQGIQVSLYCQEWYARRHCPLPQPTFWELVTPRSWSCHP
- PROCEDURE_SUMMARY: ACAT Assay (in vitro)
- Type: biochemical
- APPLIED_CONDITIONS: Conc. 10 µM; negative = apparent stimulation; read-out: ACAT (in vitro) % Inhib.
Note that class boundaries on inhibition at 10 µM are lo: < -10%; mid: ≥ -10% and < 20%; hi: ≥ 20%

Exam item: Tag the class for COc1ccc(N2C(=O)[C@@H](CCCc3ccccc3)[C@@H]2c2ccc([N+](=O)[O-])cc2)cc1 (relative stereo) [Example 1G]
Marked response: hi

Exam item: Textbook exercise: identify the category of the compound given here, COc1ccc(N2C(=O)[C@H](CCCc3ccccc3)[C@@H]2c2ccc(CN3CCN(C)CC3)cc2)cc1 (relative stereo) [Example 19B] , according to its measured value.
Marked response: hi

Exam item: Kindly state the category for this compound: COc1ccc(N2C(=O)[C@@](Cc3ccccc3)(c3ccccc3)[C@@H]2c2ccccc2)cc1 (relative stereo) [Example 1X]
Marked response: mid

Exam item: Field: class (inhibition at 10 µM) — entry: CCCCCCCCCC[C@]1(CC)C(=O)N(c2ccc(OC)cc2)[C@H]1c1ccccc1 (stereo in doubt) [Example 3Q]
Marked response: mid

Exam item: # bin lookup: classify COc1ccc(N2C(=O)[C@@H](CCCc3ccccc3)[C@H]2c2ccc(CN3CCOCC3)cc2)cc1 (relative stereo) [Example 19A] by its inhibition at 10 µM
Marked response: hi

Exam item: Lab note: which band did COc1ccc(N2C(=O)[C@H](CCCc3ccccc3)[C@@H]2c2ccccc2)cc1 (relative stereo) [Example 1B] land in?
Marked response: hi

Exam item: Which class is correct for the following compound? COc1ccc(N2C(=O)[C@@H](C(C)C)[C@@H]2c2ccccc2)cc1 (relative stereo) [Example 5A]
Marked response: lo

Exam item: Class (by measured inhibition at 10 µM) for COc1ccc([C@@H]2[C@H](CCCc3ccccc3)C(=O)N2c2ccc(O)cc2)cc1 (relative stereo) [Example 15B]
Marked response: lo

Exam item: In plain terms, what class is COc1ccc([C@H]2[C@@H](CCCCCCc3ccccc3)C(=O)N2c2ccc(OC)cc2)cc1 (relative stereo) [Example 1CE] ?
Marked response: mid

Exam item: Sort CC[C@@H]1C(=O)N(c2ccc(OC)cc2)[C@@H]1c1ccc(OC)cc1 (relative stereo) [Example 1AL] into one of the categories.
Marked response: lo

Exam item: Any idea which band CCCCCCCCCC[C@@H]1C(=O)N(c2ccc(OC)cc2)[C@H]1c1ccccc1 (relative stereo) [Example 1T] is in?
Marked response: lo

Exam item: // bin(item) where item = CC[C@@H]1C(=O)N(c2ccc(OC)cc2)[C@@H]1c1ccc(N)cc1 (relative stereo) [Example 8]
Marked response: lo

Exam item: Which class does COc1ccc(N2C(=O)[C@@](C)(CCCc3ccccc3)[C@@H]2c2ccccc2)cc1 (relative stereo) [Example 3J] fall in?
Marked response: hi

Exam item: Category of COc1ccc(N2C(=O)[C@H](CCCc3ccccc3)[C@H]2c2cccc(OC)c2)cc1 (relative stereo) [Example 5C] :
Marked response: hi
